Reference source for all entries: patent US6780994B2

- target: α1a-AR (Homo sapiens, UniProt P35348)
- Sequence (P35348 1-466): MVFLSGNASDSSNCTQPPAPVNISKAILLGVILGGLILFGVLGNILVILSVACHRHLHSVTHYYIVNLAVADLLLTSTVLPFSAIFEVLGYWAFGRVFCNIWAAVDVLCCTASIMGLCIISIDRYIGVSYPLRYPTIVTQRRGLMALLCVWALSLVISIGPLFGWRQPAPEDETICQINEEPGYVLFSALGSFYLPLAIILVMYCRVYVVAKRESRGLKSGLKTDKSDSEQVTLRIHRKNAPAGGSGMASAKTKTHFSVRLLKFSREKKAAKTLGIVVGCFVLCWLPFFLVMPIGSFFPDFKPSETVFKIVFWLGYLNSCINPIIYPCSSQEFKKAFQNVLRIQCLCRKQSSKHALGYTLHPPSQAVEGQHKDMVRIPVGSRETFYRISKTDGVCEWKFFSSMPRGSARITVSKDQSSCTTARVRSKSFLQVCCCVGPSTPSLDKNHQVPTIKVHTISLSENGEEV
Each entry below carries its reported pIC50.
In simple prose, pIC50 is minus the logarithm base ten of a concentration in moles per litre.

Some solved cases for reference:
CC(C)Oc1ccccc1N1CCN(CCCNC(=O)c2ccc3c(c2)C(=O)N(c2ccc(O)cc2)C3=O)CC1; 9.70
COc1ccc(N2C(=O)c3ccc(C(=O)NCCCN4CCN(c5ccccc5OC(C)C)CC4)cc3C2=O)cc1; 9.96
CCOc1ccccc1N1CCN(CC(O)CNC(=O)c2ccc3c(c2)C(=O)N(c2cccc(F)c2)C3=O)CC1 (stereo not shown); 8.37
COc1ccccc1N1CCN(CC(O)CNC(=O)c2ccc3c(c2)C(=O)N(c2cccc(F)c2)C3=O)CC1 (stereo not shown); 7.66
CC(C)Oc1ccccc1N1CCN(CC(O)CNC(=O)c2ccc3c(c2)C(=O)N(c2ccccc2)C3=O)CC1 (stereo not shown); 9.05
Cc1ccc(N2C(=O)c3ccc(C(=O)NCC(O)CN4CCN(c5ccccc5OC(C)C)CC4)cc3C2=O)cc1 (stereo not shown); 9.18

Here is another molecule to look at.
QUERY: Specify pIC50 for CC(=O)c1ccc(N2C(=O)c3ccc(C(=O)NCC(O)CN4CCN(c5ccccc5OC(C)C)CC4)cc3C2=O)cc1 (stereo not shown) and stop.
RESULT: 9.00

* * *

- target: α1a-AR (Homo sapiens, UniProt P35348)
- Sequence (P35348 1-466): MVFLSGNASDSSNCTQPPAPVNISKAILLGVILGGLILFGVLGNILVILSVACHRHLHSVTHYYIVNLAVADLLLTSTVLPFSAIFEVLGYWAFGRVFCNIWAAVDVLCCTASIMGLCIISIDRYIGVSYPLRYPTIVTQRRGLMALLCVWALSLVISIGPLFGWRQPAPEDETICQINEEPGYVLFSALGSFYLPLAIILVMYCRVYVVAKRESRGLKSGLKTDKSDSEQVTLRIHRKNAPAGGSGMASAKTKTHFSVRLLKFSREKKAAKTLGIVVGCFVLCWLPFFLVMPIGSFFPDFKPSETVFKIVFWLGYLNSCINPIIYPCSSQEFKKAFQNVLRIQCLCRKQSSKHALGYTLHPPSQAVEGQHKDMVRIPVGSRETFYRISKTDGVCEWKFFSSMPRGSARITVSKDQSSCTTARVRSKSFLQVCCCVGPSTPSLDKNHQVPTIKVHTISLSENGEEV
attribute measured: IC50

Some solved cases for reference:
Cc1ccc(N2C(=O)c3ccc(C(=O)NCCCN4CCN(c5ccccc5OC(C)C)CC4)cc3C2=O)cc1 [Compound 46]; 0.1 nM
CC(C)Oc1ccccc1N1CCN(CC(O)CNC(=O)c2ccc3c(c2)C(=O)N(c2ccc(O)cc2)C3=O)CC1 (stereo not shown) [Compound 58]; 0.88 nM
CC(C)Oc1ccccc1N1CCN(CC(O)CNC(=O)c2ccc3c(c2)C(=O)N(c2cccnc2)C3=O)CC1 (stereo not shown) [Compound 11]; 1.9 nM
CC(C)Oc1ccccc1N1CCN(CCCNC(=O)c2ccc3c(c2)C(=O)N(c2cccc(F)c2)C3=O)CC1 [Compound 6]; 0.41 nM
Cc1cccc(N2C(=O)c3ccc(C(=O)NCC(O)CN4CCN(c5ccccc5OC(C)C)CC4)cc3C2=O)c1 (stereo not shown) [Compound 49]; 0.9 nM
CC(C)Oc1ccccc1N1CCN(CC(O)CNC(=O)c2ccc3c(c2)C(=O)N(c2ccc(Cl)cc2)C3=O)CC1 (stereo not shown) [Compound 53]; 0.95 nM

Here is another compound to look at.
QUERY: Specify IC50 for CC(C)Oc1ccccc1N1CCN(C[C@@H](O)CNC(=O)c2ccc3c(c2)C(=O)N(c2ccc(N(C)C)cc2)C3=O)CC1 [Compound 21] and stop.
RESULT: 0.36 nM

* * *

- target: α1d-AR (Homo sapiens, UniProt P25100)
Each entry below carries its reported pIC50.
In simple prose, pIC50 is minus the logarithm base ten of a concentration in moles per litre.

Some solved cases for reference:
COc1ccccc1N1CCN(CC(O)CNC(=O)c2ccc3c(c2)C(=O)N(c2cccc(F)c2)C3=O)CC1 (stereo not drawn); 6.27
CC(C)Oc1ccccc1N1CCN(CC(O)CNC(=O)c2ccc3c(c2)C(=O)N(c2cccnc2)C3=O)CC1 (stereo not drawn); 7.51
CC(=O)c1ccc(N2C(=O)c3ccc(C(=O)NCC(O)CN4CCN(c5ccccc5OC(C)C)CC4)cc3C2=O)cc1 (stereo not drawn); 7.22
Cc1cccc(N2C(=O)c3ccc(C(=O)NCC(O)CN4CCN(c5ccccc5OC(C)C)CC4)cc3C2=O)c1 (stereo not drawn); 7.14
CCOc1ccccc1N1CCN(CC(O)CNC(=O)c2ccc3c(c2)C(=O)N(c2cccc(F)c2)C3=O)CC1 (stereo not drawn); 6.87
COc1ccccc1N1C(=O)c2ccc(C(=O)NCC(O)CN3CCN(c4ccccc4OC(C)C)CC3)cc2C1=O (stereo not drawn); 7.13
CC(C)Oc1ccccc1N1CCN(CCCNC(=O)c2ccc3c(c2)C(=O)N(c2cccc(F)c2)C3=O)CC1; 7.66
CC(C)Oc1ccccc1N1CCN(C[C@@H](O)CNC(=O)c2ccc3c(c2)C(=O)N(c2cccc(F)c2)C3=O)CC1; 6.72

QUERY: Give measured pIC50 for COc1ccc(N2C(=O)c3ccc(C(=O)NCC(O)CN4CCN(c5ccccc5OC(C)C)CC4)cc3C2=O)cc1 (stereo not drawn) (α1d-AR (Homo sapiens, UniProt P25100)).
RESULT: 7.29

QUERY: Give measured pIC50 for CC(C)Oc1ccccc1N1CCN(CC(O)CNC(=O)c2ccc3c(c2)C(=O)N(c2ccc(N(C)C)cc2)C3=O)CC1 (stereo not drawn) (α1d-AR (Homo sapiens, UniProt P25100)).
RESULT: 7.36

QUERY: Give measured pIC50 for CC(C)Oc1ccccc1N1CCN(CC(O)CNC(=O)c2ccc3c(c2)C(=O)N(c2ccccc2)C3=O)CC1 (stereo not drawn) (α1d-AR (Homo sapiens, UniProt P25100)).
RESULT: 7.19

* * *

- target: UniProtKB P25100
- Sequence (P25100 1-572): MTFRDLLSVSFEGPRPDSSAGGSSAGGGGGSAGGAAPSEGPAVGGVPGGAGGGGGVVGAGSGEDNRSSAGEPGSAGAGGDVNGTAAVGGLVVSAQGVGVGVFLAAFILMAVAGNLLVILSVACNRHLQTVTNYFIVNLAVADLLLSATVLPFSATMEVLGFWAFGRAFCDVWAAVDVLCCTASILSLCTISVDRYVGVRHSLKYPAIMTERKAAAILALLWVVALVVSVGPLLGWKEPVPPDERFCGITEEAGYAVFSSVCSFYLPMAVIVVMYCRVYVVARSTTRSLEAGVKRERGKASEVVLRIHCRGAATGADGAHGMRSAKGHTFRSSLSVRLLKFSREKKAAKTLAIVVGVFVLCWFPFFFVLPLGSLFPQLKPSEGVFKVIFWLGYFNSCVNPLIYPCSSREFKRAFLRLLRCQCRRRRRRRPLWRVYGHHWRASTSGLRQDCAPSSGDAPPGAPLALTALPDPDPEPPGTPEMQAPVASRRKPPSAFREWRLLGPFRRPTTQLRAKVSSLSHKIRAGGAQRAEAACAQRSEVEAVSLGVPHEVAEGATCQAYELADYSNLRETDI
Each entry below carries its reported pIC50.
In simple prose, pIC50 is minus the logarithm base ten of a concentration in moles per litre.

Some solved cases for reference:
COc1ccc(N2C(=O)c3ccc(C(=O)NCC(O)CN4CCN(c5ccccc5OC(C)C)CC4)cc3C2=O)cc1OC (stereo not shown) [Compound 38]; 6.76
CC(C)Oc1ccccc1N1CCN(CC(O)CNC(=O)c2ccc3c(c2)C(=O)N(c2ccc(Cl)cc2)C3=O)CC1 (stereo not shown) [Compound 53]; 7.26
Cc1ccc(N2C(=O)c3ccc(C(=O)NCCCN4CCN(c5ccccc5OC(C)C)CC4)cc3C2=O)cc1 [Compound 46]; 7.43

Here is another compound to look at.
QUERY: Specify pIC50 for CC(C)Oc1ccccc1N1CCN(CCCNC(=O)c2ccc3c(c2)C(=O)N(c2ccc(N(C)C)cc2)C3=O)CC1 [Compound 44] and stop.
RESULT: 7.82
